study_target: Fatty-acid amide hydrolase 1 (Homo sapiens, UniProt O00519)
Sequence (O00519 whole entry): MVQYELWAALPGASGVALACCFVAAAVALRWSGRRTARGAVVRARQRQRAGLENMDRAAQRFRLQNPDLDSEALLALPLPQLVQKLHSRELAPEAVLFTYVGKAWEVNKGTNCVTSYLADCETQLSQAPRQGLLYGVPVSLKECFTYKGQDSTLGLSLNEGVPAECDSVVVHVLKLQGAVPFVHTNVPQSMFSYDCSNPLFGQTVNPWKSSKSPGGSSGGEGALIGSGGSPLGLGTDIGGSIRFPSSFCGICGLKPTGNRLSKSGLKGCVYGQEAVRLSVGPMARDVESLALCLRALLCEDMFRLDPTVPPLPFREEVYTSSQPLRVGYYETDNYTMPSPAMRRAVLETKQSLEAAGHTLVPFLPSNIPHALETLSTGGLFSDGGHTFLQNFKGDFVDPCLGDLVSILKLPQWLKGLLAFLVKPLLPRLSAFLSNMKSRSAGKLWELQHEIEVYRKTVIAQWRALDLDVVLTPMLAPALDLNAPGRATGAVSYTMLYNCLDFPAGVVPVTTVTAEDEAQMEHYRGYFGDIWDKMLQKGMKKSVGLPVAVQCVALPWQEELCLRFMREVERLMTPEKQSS
procedure_details: Inhibitory concentration against fatty acid amide hydrolase
Recorded log10 of IC50 for the following compounds
Record value = log10 of IC50 given in µM.

[
  {
    "compound": "CCCCCCCCCCCCCCCNC(=O)COC(C)=O",
    "log10 of IC50": 0.90
  },
  {
    "compound": "CC(C)c1cccc(C(C)C)c1O",
    "log10 of IC50": 1.72
  },
  {
    "compound": "CCCCC/C=C\\C/C=C\\C/C=C\\C/C=C\\CCCC(=O)NCCc1c[nH]c2ccc(O)cc12",
    "log10 of IC50": 1.08
  }
]

Inquiry: Give me measured log10 of IC50, please, for this compound: `CCCCCCCCCCCCCCCC(=O)NCC(=O)OC`
Reply text: 1.00

Data provenance is ChEMBL document CHEMBL1140350.
